- Tested on: Plasmodium falciparum
- PROTOCOL: Antimalarial activity against chloroquine/pyrimethamine-resistant Plasmodium falciparum W2 after 48 hrs by [3H]hypoxanthine incorporation assay
- Assay type: functional, organism-based
pIC50: −log10 of the molar value.
The label depends only on pIC50: criterion met if it is at least 7, criterion not met if it is smaller.

Task item: Please check the record CC[C@H]1OC(=O)[C@H](C)[C@@H](O[C@H]2C[C@@](C)(OC)[C@@H](O)[C@H](C)O2)[C@H](C)[C@@H](O[C@@H]2O[C@H](C)C[C@H](N(C)C)[C@H]2O)[C@](C)(O)C[C@@H](C)CN(CCCN(CCC#N)C(=O)Nc2ccc(Cl)cc2Cl)[C@H](C)[C@@H](O)[C@]1(C)O and state if its pIC50 is at or above 7.
Reply: criterion not met

Task item: Does pIC50 meet or surpass 7 for CC[C@H]1OC(=O)[C@H](C)[C@@H](O[C@H]2C[C@@](C)(OC)[C@@H](O)[C@H](C)O2)[C@H](C)[C@@H](O[C@@H]2O[C@H](C)C[C@H](N(C)C)[C@H]2O)[C@](C)(O)C[C@@H](C)CN(CCNC(=O)NC(C)c2cccc3ccccc23)[C@H](C)[C@@H](O)[C@]1(C)O (stereo not given in full) ?
Reply: criterion met

Task item: Check this molecule for pIC50 at or above 7: CC[C@H]1OC(=O)[C@H](C)[C@@H](O[C@H]2C[C@@](C)(OC)[C@@H](O)[C@H](C)O2)[C@H](C)[C@@H](O[C@@H]2O[C@H](C)C[C@H](N(C)C)[C@H]2O)[C@](C)(O)C[C@@H](C)CN(CCNC(=S)Nc2ccccc2)[C@H](C)[C@@H](O)[C@]1(C)O
Reply: criterion not met

Task item: Does the reported pIC50 for CC[C@H]1OC(=O)[C@H](C)[C@@H](O[C@H]2C[C@@](C)(OC)[C@@H](O)[C@H](C)O2)[C@H](C)[C@@H](O[C@@H]2O[C@H](C)C[C@H](N(C)C)[C@H]2O)[C@](C)(O)C[C@@H](C)CN(CCCN(CCC#N)C(=O)Nc2cccc3ccccc23)[C@H](C)[C@@H](O)[C@]1(C)O fall at or above the 7 mark?
Reply: criterion not met

Task item: Can CC[C@H]1OC(=O)[C@H](C)[C@@H](O[C@H]2C[C@@](C)(OC)[C@@H](O)[C@H](C)O2)[C@H](C)[C@@H](O[C@@H]2O[C@H](C)C[C@H](N(C)C)[C@H]2O)[C@](C)(O)C[C@@H](C)CN(CCCN(CCC#N)C(=O)NC(C)C)[C@H](C)[C@@H](O)[C@]1(C)O be said to have pIC50 at or above 7?
Reply: criterion not met

Task item: Decide: pIC50 of CCNC(=O)NCCN1C[C@H](C)C[C@@](C)(O)[C@H](O[C@@H]2O[C@H](C)C[C@H](N(C)C)[C@H]2O)[C@@H](C)[C@H](O[C@H]2C[C@@](C)(OC)[C@@H](O)[C@H](C)O2)[C@@H](C)C(=O)O[C@H](CC)[C@@](C)(O)[C@H](O)[C@H]1C >= 7?
Reply: criterion not met

Task item: Given CC[C@H]1OC(=O)[C@H](C)[C@@H](O[C@H]2C[C@@](C)(OC)[C@@H](O)[C@H](C)O2)[C@H](C)[C@@H](O[C@@H]2O[C@H](C)C[C@H](N(C)C)[C@H]2O)[C@](C)(O)C[C@@H](C)CN(CCNC(=O)NCc2ccccc2)[C@H](C)[C@@H](O)[C@]1(C)O , state whether its pIC50 is at least 7.
Reply: criterion not met

Task item: State whether the measured pIC50 reaches 7, counting equality as reaching it, for CC[C@H]1OC(=O)[C@H](C)[C@@H](O[C@H]2C[C@@](C)(OC)[C@@H](O)[C@H](C)O2)[C@H](C)[C@@H](O[C@@H]2O[C@H](C)C[C@H](N(C)C)[C@H]2O)[C@](C)(O)C[C@@H](C)CN(CCNC(=S)NCCCc2ccccc2)[C@H](C)[C@@H](O)[C@]1(C)O
Reply: criterion met

Task item: Determine whether measured pIC50 meets or exceeds 7 for CC[C@H]1OC(=O)[C@H](C)[C@@H](O[C@H]2C[C@@](C)(OC)[C@@H](O)[C@H](C)O2)[C@H](C)[C@@H](O[C@@H]2O[C@H](C)C[C@H](N(C)C)[C@H]2O)[C@](C)(O)C[C@@H](C)CN(CCCNC(=O)Nc2cccc3ccccc23)[C@H](C)[C@@H](O)[C@]1(C)O
Reply: criterion not met

Task item: Identify whether the reported pIC50 of the following molecule is 7 or greater: CC[C@H]1OC(=O)[C@H](C)[C@@H](O[C@H]2C[C@@](C)(OC)[C@@H](O)[C@H](C)O2)[C@H](C)[C@@H](O[C@@H]2O[C@H](C)C[C@H](N(C)C)[C@H]2O)[C@](C)(O)C[C@@H](C)CN(CCCN(CCC#N)C(=S)NCCc2ccccc2)[C@H](C)[C@@H](O)[C@]1(C)O
Reply: criterion met

====

- Test system: Plasmodium falciparum
- PROTOCOL: Antimalarial activity against chloroquine-sensitive Plasmodium falciparum D6 after 48 hrs by [3H]hypoxanthine incorporation assay
- Type: functional, organism-based
For each entry below, report its pIC50 value.
Quick note: pIC50 means taking -log10 of the concentration in moles per liter.

Task item: Read off the recorded pIC50 for CC[C@H]1OC(=O)[C@H](C)[C@@H](O[C@H]2C[C@@](C)(OC)[C@@H](O)[C@H](C)O2)[C@H](C)[C@@H](O[C@@H]2O[C@H](C)C[C@H](N(C)C)[C@H]2O)[C@](C)(O)C[C@@H](C)CN(CCCNC(=S)NCCCc2ccccc2)[C@H](C)[C@@H](O)[C@]1(C)O
Reply: 6.97

Task item: Recall and state the measured pIC50 for CC[C@H]1OC(=O)[C@H](C)[C@@H](O[C@H]2C[C@@](C)(OC)[C@@H](O)[C@H](C)O2)[C@H](C)[C@@H](O[C@@H]2O[C@H](C)C[C@H](N(C)C)[C@H]2O)[C@](C)(O)C[C@@H](C)CN(C)[C@H](C)[C@@H](O)[C@]1(C)O .
Reply: 5.98

Task item: Give recorded pIC50. CC[C@H]1OC(=O)[C@H](C)[C@@H](O[C@H]2C[C@@](C)(OC)[C@@H](O)[C@H](C)O2)[C@H](C)[C@@H](O[C@@H]2O[C@H](C)C[C@H](N(C)C)[C@H]2O)[C@](C)(O)C[C@@H](C)CN(CCN(CCC(N)=O)C(=O)Nc2ccc3ccccc3c2)[C@H](C)[C@@H](O)[C@]1(C)O
Reply: 6.72

Task item: Tell me pIC50 reported for CC[C@H]1OC(=O)[C@H](C)[C@@H](O[C@H]2C[C@@](C)(OC)[C@@H](O)[C@H](C)O2)[C@H](C)[C@@H](O[C@@H]2O[C@H](C)C[C@H](N(C)C)[C@H]2O)[C@](C)(O)C[C@@H](C)CN(CCNC(=S)NCc2ccccc2)[C@H](C)[C@@H](O)[C@]1(C)O
Reply: 6.96

Task item: Tell me measured pIC50 for CC[C@H]1OC(=O)[C@H](C)[C@@H](O[C@H]2C[C@@](C)(OC)[C@@H](O)[C@H](C)O2)[C@H](C)[C@@H](O[C@@H]2O[C@H](C)C[C@H](N(C)C)[C@H]2O)[C@](C)(O)C[C@@H](C)CN(CCCN(CCC#N)C(=S)NCCc2ccccc2)[C@H](C)[C@@H](O)[C@]1(C)O please.
Reply: 7.06

Task item: Tell us which pIC50 value is on record for CC[C@H]1OC(=O)[C@H](C)[C@@H](O[C@H]2C[C@@](C)(OC)[C@@H](O)[C@H](C)O2)[C@H](C)[C@@H](O[C@@H]2O[C@H](C)C[C@H](N(C)C)[C@H]2O)[C@](C)(O)C[C@@H](C)CN(CCNC(=S)NCCc2ccccc2)[C@H](C)[C@@H](O)[C@]1(C)O
Reply: 6.69

====

For each of the compounds below, state its IC50.
- System: Plasmodium falciparum
- PROTOCOL: Antimalarial activity against chloroquine/pyrimethamine-resistant Plasmodium falciparum W2 after 48 hrs by [3H]hypoxanthine incorporation assay
- Type: functional, organism-based
Reply numerically in nM, unit not repeated.

Task item: Please look at this compound and report its IC50: CC[C@H]1OC(=O)[C@H](C)[C@@H](O)[C@H](C)[C@@H](O[C@@H]2O[C@H](C)C[C@H](N(C)C)[C@H]2O)[C@](C)(O)C[C@@H](C)CN(CCNC(=O)Nc2ccc3ccccc3c2)[C@H](C)[C@@H](O)[C@]1(C)O
Reply: 99

Task item: Please give measured IC50 of the following entry: CC[C@H]1OC(=O)[C@H](C)[C@@H](O[C@H]2C[C@@](C)(OC)[C@@H](O)[C@H](C)O2)[C@H](C)[C@@H](O[C@@H]2O[C@H](C)C[C@H](N(C)C)[C@H]2O)[C@](C)(O)C[C@@H](C)CN(CCCNC(=S)NCc2ccccc2)[C@H](C)[C@@H](O)[C@]1(C)O
Reply: 121

Task item: Annotate the compound CC[C@H]1OC(=O)[C@H](C)[C@@H](O[C@H]2C[C@@](C)(OC)[C@@H](O)[C@H](C)O2)[C@H](C)[C@@H](O[C@@H]2O[C@H](C)C[C@H](N(C)C)[C@H]2O)[C@](C)(O)C[C@@H](C)CN(CCCNC(=S)NCCc2ccccc2)[C@H](C)[C@@H](O)[C@]1(C)O with its measured IC50.
Reply: 167

Task item: For CC[C@H]1OC(=O)[C@H](C)[C@@H](O[C@H]2C[C@@](C)(OC)[C@@H](O)[C@H](C)O2)[C@H](C)[C@@H](O[C@@H]2O[C@H](C)C[C@H](N(C)C)[C@H]2O)[C@](C)(O)C[C@@H](C)CN(CCNC(=O)Nc2cccc3ccccc23)[C@H](C)[C@@H](O)[C@]1(C)O , write its IC50.
Reply: 79

Task item: Consider the compound CC[C@H]1OC(=O)[C@H](C)[C@@H](O[C@H]2C[C@@](C)(OC)[C@@H](O)[C@H](C)O2)[C@H](C)[C@@H](O[C@@H]2O[C@H](C)C[C@H](N(C)C)[C@H]2O)[C@](C)(O)C[C@@H](C)CN(CCCN(CCC#N)C(=O)NC(C)c2cccc3ccccc23)[C@H](C)[C@@H](O)[C@]1(C)O (some centres not stated) and give its recorded IC50.
Reply: 136

Task item: Return value of IC50 for input CC[C@H]1OC(=O)[C@H](C)[C@@H](O[C@H]2C[C@@](C)(OC)[C@@H](O)[C@H](C)O2)[C@H](C)[C@@H](O[C@@H]2O[C@H](C)C[C@H](N(C)C)[C@H]2O)[C@](C)(O)C[C@@H](C)CN(CCNC(=S)Nc2cccc3ccccc23)[C@H](C)[C@@H](O)[C@]1(C)O , no commentary.
Reply: 99

Task item: Give the measured IC50 for CC[C@H]1OC(=O)[C@H](C)[C@@H](O[C@H]2C[C@@](C)(OC)[C@@H](O)[C@H](C)O2)[C@H](C)[C@@H](O[C@@H]2O[C@H](C)C[C@H](N(C)C)[C@H]2O)[C@](C)(O)C[C@@H](C)CN(CCNC(=S)NCc2ccccc2)[C@H](C)[C@@H](O)[C@]1(C)O
Reply: 72

Hello, the source for this data is ChEMBL document CHEMBL1772969, in case you need it.
